molecular target: INSR (Homo sapiens); construct: purchased Eurofins DiscoverX KINOMEscan (scanTK); test: KINOMEscan ScanTK; type: binding; settings: @1000nM, read-out: %Control
Sequence (P06213 28-1382): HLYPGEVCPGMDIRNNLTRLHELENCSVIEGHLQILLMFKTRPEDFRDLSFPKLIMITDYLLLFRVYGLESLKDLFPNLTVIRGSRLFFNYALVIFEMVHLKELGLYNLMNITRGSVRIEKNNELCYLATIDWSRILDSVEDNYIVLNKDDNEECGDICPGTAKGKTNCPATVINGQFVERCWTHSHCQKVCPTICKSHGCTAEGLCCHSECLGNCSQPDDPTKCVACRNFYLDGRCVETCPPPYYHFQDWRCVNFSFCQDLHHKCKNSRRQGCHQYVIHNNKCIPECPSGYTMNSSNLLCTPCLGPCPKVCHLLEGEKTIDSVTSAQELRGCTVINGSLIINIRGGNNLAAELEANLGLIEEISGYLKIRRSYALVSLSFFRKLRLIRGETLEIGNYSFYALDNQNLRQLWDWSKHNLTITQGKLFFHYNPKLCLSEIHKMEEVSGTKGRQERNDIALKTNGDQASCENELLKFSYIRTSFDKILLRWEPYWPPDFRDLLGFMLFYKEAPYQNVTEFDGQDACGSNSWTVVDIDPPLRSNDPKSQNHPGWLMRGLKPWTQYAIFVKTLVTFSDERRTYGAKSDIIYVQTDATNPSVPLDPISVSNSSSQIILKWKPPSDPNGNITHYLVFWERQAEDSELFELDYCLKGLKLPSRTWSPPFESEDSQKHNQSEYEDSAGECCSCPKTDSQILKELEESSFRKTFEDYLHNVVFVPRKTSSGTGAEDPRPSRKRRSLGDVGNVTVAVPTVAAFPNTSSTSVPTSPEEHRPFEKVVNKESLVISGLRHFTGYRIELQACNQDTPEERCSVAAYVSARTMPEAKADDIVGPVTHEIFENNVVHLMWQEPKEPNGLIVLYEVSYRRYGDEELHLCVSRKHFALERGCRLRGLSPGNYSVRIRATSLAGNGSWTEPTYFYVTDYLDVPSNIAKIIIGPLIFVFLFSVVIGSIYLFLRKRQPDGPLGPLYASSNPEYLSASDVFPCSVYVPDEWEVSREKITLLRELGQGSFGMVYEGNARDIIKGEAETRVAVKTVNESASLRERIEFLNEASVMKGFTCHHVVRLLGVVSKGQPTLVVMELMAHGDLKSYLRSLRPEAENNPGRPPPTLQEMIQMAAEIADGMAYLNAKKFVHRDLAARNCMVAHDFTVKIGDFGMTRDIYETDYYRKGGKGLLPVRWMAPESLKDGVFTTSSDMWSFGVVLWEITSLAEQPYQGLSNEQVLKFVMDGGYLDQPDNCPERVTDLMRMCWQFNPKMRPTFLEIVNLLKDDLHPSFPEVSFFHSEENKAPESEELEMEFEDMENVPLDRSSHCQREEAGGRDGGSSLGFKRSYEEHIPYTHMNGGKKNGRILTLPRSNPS
test readout: remaining binding at 1 µM (%)
Number only, in %; omit the unit.

(Q) Supply recorded remaining binding at 1 µM for CCOC(=O)c1cnc(S(C)(=O)=O)nc1N1CCC[C@@H](n2nc(-c3ccc(Oc4ccccc4)cc3)c3c(N)ncnc32)C1 here.
(A) 100

(Q) Tell me its remaining binding at 1 µM given COC(=O)c1cnc(S(C)(=O)=O)nc1N1CCCC(n2nc(-c3ccc(Oc4ccccc4)cc3)c3c(N)ncnc32)C1 (centres unmarked) as the entry.
(A) 95

(Q) Please give the documented remaining binding at 1 µM of Cc1cnc(S(C)(=O)=O)nc1N1CCCC(n2nc(-c3ccc(Oc4ccccc4)cc3)c3c(N)ncnc32)C1 (centres unmarked)
(A) 95

(Q) Give the reported value of remaining binding at 1 µM for this record: CNC(=O)c1cnc(S(C)(=O)=O)nc1N1CCCC(n2nc(-c3ccc(Oc4ccccc4)cc3)c3c(N)ncnc32)C1 (centres unmarked)
(A) 100

(Q) Give remaining binding at 1 µM for C=CC(=O)N1CCC[C@@H](n2nc(-c3ccc(Oc4ccccc4)cc3)c3c(N)ncnc32)C1 [Compound 1g, Ibrutinib, reference compound]
(A) 100

---

molecular target: ABL1(H396P)-nonphosphorylated (Homo sapiens, UniProt P00519, H396P); construct: purchased Eurofins DiscoverX KINOMEscan (scanTK); test: KINOMEscan ScanTK; format: binding; details: @1000nM, read-out: %Control
Response field label takes true (1) when remaining binding at 1 µM is strictly below 60% and false (0) in all other cases.

- compound: "CCOC(=O)c1cnc(S(C)(=O)=O)nc1N1CCC[C@@H](n2nc(-c3ccc(Oc4ccccc4)cc3)c3c(N)ncnc32)C1 [Compound 8c]"
  category: "true (1)"

(Q) Dear reviewer, please state whether CNC(=O)c1cnc(S(C)(=O)=O)nc1N1CCCC(n2nc(-c3ccc(Oc4ccccc4)cc3)c3c(N)ncnc32)C1 (centres unmarked) [Compound 8d] has remaining binding at 1 µM strictly beneath 60%.
(A) true (1)

(Q) Take the compound C=CC(=O)N1CCC[C@@H](n2nc(-c3ccc(Oc4ccccc4)cc3)c3c(N)ncnc32)C1 [Compound 1g, Ibrutinib, reference compound] and say whether its remaining binding at 1 µM is less than 60%.
(A) true (1)

(Q) Just wondering, is remaining binding at 1 µM of COC(=O)c1cnc(S(C)(=O)=O)nc1N1CCCC(n2nc(-c3ccc(Oc4ccccc4)cc3)c3c(N)ncnc32)C1 (centres unmarked) [Compound 8b] below 60%?
(A) false (0)

---

target: EGFR (Homo sapiens, UniProt P00533); construct: purchased Eurofins DiscoverX KINOMEscan (scanTK); experiment: KINOMEscan ScanTK; type: binding; conditions: @1000nM; EGFR; read-out: %Control
Sequence (P00533 25-1210): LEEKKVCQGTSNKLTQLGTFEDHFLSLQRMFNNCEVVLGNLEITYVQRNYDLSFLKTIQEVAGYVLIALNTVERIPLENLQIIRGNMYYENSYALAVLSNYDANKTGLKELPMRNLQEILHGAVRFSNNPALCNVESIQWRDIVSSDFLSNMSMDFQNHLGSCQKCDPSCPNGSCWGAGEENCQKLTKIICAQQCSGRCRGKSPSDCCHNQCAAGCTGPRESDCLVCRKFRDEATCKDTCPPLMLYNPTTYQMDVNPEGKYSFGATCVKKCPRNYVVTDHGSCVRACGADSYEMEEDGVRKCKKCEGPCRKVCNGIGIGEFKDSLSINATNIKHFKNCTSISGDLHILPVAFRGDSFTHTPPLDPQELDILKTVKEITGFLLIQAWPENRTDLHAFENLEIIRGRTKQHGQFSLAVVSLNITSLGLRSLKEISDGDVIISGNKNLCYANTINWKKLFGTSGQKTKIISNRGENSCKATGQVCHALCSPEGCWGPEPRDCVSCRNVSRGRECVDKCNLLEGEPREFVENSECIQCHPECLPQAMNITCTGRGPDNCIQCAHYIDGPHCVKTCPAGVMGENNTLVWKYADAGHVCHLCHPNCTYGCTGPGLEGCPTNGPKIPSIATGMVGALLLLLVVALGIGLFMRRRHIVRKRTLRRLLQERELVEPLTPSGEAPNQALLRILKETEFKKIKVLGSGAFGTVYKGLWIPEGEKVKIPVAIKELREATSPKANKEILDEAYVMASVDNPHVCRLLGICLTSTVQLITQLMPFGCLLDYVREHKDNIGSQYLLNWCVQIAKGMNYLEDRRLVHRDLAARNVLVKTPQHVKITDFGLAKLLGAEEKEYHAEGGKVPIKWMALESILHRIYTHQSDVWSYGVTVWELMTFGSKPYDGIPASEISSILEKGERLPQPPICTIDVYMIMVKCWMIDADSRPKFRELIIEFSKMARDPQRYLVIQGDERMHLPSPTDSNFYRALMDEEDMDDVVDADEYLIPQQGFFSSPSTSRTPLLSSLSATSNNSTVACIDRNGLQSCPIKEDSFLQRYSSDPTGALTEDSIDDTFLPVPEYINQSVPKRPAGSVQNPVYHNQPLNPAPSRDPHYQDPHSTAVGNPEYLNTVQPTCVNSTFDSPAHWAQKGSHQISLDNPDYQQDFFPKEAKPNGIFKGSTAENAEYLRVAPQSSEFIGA
test readout: remaining binding at 1 µM (%)
Quick note: give the figure in %, leave out the unit.

- compound: "CCOC(=O)c1cnc(S(C)(=O)=O)nc1N1CCC[C@@H](n2nc(-c3ccc(Oc4ccccc4)cc3)c3c(N)ncnc32)C1"
  unit descriptor: "%"
  remaining binding at 1 µM: 43
- compound: "CNC(=O)c1cnc(S(C)(=O)=O)nc1N1CCCC(n2nc(-c3ccc(Oc4ccccc4)cc3)c3c(N)ncnc32)C1 (stereo not shown)"
  unit descriptor: "%"
  remaining binding at 1 µM: 17
- compound: "COC(=O)c1cnc(S(C)(=O)=O)nc1N1CCCC(n2nc(-c3ccc(Oc4ccccc4)cc3)c3c(N)ncnc32)C1 (stereo not shown)"
  unit descriptor: "%"
  remaining binding at 1 µM: 33

(Q) In one line, give reported remaining binding at 1 µM of the entry Cc1cnc(S(C)(=O)=O)nc1N1CCCC(n2nc(-c3ccc(Oc4ccccc4)cc3)c3c(N)ncnc32)C1 (stereo not shown) .
(A) 53

---

Target: ITK (Homo sapiens, UniProt Q08881)
Construct: purchased Eurofins DiscoverX KINOMEscan (scanTK)
Sequence (Q08881 1-620): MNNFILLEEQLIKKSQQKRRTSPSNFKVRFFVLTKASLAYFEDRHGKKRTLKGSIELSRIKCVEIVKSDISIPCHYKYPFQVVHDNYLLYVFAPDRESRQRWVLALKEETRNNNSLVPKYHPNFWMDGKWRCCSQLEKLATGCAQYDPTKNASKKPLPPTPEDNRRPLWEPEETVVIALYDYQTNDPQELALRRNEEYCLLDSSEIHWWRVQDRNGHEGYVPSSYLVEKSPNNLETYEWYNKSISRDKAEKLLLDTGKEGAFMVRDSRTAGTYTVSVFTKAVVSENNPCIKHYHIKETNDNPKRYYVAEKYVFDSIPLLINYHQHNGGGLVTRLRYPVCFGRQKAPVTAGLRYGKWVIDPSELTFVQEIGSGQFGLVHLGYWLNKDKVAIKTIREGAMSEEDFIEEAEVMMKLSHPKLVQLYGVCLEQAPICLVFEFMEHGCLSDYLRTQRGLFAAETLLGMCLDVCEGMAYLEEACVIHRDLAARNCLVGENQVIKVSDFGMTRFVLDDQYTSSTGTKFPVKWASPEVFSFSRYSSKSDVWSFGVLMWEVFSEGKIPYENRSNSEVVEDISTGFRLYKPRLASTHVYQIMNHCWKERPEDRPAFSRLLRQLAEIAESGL
Assay: KINOMEscan ScanTK
Assay type: binding
Settings: @1000nM; ITK; read-out: %Control
test readout: remaining binding at 1 µM

- compound: "C=CC(=O)N1CCC[C@@H](n2nc(-c3ccc(Oc4ccccc4)cc3)c3c(N)ncnc32)C1 [Compound 1g, Ibrutinib, reference compound]"
  test readout: "remaining binding at 1 µM"
  test value: "15%"
- compound: "COC(=O)c1cnc(S(C)(=O)=O)nc1N1CCCC(n2nc(-c3ccc(Oc4ccccc4)cc3)c3c(N)ncnc32)C1 (centres unmarked)"
  test readout: "remaining binding at 1 µM"
  test value: "71%"
- compound: "CNC(=O)c1cnc(S(C)(=O)=O)nc1N1CCCC(n2nc(-c3ccc(Oc4ccccc4)cc3)c3c(N)ncnc32)C1 (centres unmarked)"
  test readout: "remaining binding at 1 µM"
  test value: "81%"

(Q) Hello, please tell me recorded remaining binding at 1 µM for this one: Cc1cnc(S(C)(=O)=O)nc1N1CCCC(n2nc(-c3ccc(Oc4ccccc4)cc3)c3c(N)ncnc32)C1 (centres unmarked)
(A) 84%

(Q) Complete the entry with remaining binding at 1 µM for CCOC(=O)c1cnc(S(C)(=O)=O)nc1N1CCC[C@@H](n2nc(-c3ccc(Oc4ccccc4)cc3)c3c(N)ncnc32)C1
(A) 88%

---

target: EPHA7 (Homo sapiens, UniProt Q15375); construct: purchased Eurofins DiscoverX KINOMEscan (scanTK); assay: KINOMEscan ScanTK; type: binding; settings: read-out: %Control @1000nM
Sequence (Q15375 28-998): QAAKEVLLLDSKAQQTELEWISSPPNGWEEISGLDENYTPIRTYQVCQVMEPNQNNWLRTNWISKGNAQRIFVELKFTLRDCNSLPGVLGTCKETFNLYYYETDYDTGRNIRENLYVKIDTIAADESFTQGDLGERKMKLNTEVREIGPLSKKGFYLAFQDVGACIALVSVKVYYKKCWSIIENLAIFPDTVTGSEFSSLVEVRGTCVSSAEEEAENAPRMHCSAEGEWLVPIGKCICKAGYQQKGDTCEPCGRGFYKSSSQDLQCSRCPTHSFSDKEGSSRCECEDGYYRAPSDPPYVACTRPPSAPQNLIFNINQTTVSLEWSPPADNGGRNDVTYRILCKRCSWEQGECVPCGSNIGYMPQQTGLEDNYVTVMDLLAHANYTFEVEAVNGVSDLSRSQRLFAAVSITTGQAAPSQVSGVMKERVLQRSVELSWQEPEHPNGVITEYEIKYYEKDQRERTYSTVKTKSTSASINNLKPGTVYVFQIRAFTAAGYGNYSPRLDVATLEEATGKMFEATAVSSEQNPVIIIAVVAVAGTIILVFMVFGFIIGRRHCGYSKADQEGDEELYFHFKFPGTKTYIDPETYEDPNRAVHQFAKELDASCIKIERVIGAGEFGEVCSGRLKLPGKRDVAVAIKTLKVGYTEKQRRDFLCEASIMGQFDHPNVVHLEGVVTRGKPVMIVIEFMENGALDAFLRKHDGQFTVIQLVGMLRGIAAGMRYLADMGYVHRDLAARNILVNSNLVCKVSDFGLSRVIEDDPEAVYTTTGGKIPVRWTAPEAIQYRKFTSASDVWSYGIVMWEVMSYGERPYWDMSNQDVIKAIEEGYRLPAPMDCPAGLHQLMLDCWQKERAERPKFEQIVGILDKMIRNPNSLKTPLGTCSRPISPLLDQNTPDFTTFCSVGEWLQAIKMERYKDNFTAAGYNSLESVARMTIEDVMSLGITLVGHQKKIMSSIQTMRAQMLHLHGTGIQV
test readout: remaining binding at 1 µM

(Q) Entry CNC(=O)c1cnc(S(C)(=O)=O)nc1N1CCCC(n2nc(-c3ccc(Oc4ccccc4)cc3)c3c(N)ncnc32)C1 (centres unmarked) needs its remaining binding at 1 µM filled in; supply it.
(A) 99%

(Q) Specify measured remaining binding at 1 µM for COC(=O)c1cnc(S(C)(=O)=O)nc1N1CCCC(n2nc(-c3ccc(Oc4ccccc4)cc3)c3c(N)ncnc32)C1 (centres unmarked) .
(A) 93%

(Q) Answer with the recorded remaining binding at 1 µM for the compound listed here: Cc1cnc(S(C)(=O)=O)nc1N1CCCC(n2nc(-c3ccc(Oc4ccccc4)cc3)c3c(N)ncnc32)C1 (centres unmarked)
(A) 97%

(Q) Fill in reported remaining binding at 1 µM for this entry: C=CC(=O)N1CCC[C@@H](n2nc(-c3ccc(Oc4ccccc4)cc3)c3c(N)ncnc32)C1 [Compound 1g, Ibrutinib, reference compound]
(A) 95%

(Q) Recall and state the measured remaining binding at 1 µM for CCOC(=O)c1cnc(S(C)(=O)=O)nc1N1CCC[C@@H](n2nc(-c3ccc(Oc4ccccc4)cc3)c3c(N)ncnc32)C1 .
(A) 97%

---

Listed below: remaining binding at 1 µM values for each entry.
target: TYK2(JH2domain-pseudokinase) (Homo sapiens, UniProt P29597); construct: TYK2(JH2domain-pseudokinase); purchased Eurofins DiscoverX KINOMEscan (scanTK); assay: KINOMEscan ScanTK; assay type: binding; conditions: @1000nM, read-out: %Control
Sequence (P29597 575-869 limits assumed): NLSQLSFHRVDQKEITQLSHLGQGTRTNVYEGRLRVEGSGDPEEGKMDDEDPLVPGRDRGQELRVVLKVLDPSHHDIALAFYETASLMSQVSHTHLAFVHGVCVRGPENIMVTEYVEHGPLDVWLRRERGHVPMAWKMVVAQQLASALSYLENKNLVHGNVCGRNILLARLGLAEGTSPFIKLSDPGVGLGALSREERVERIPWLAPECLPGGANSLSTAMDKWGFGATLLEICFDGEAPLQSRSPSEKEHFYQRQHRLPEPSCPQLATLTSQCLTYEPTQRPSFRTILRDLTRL
The reply should contain only the number, in %.

Reference set (4 entries):
- compound: "Cc1cnc(S(C)(=O)=O)nc1N1CCCC(n2nc(-c3ccc(Oc4ccccc4)cc3)c3c(N)ncnc32)C1 (centres unmarked) [Compound 8a]"
  measurement target: "TYK2(JH2domain-pseudokinase) (Homo sapiens, UniProt P29597)"
  remaining binding at 1 µM (%): 92
- compound: "CCOC(=O)c1cnc(S(C)(=O)=O)nc1N1CCC[C@@H](n2nc(-c3ccc(Oc4ccccc4)cc3)c3c(N)ncnc32)C1 [Compound 8c]"
  measurement target: "TYK2(JH2domain-pseudokinase) (Homo sapiens, UniProt P29597)"
  remaining binding at 1 µM (%): 100
- compound: "COC(=O)c1cnc(S(C)(=O)=O)nc1N1CCCC(n2nc(-c3ccc(Oc4ccccc4)cc3)c3c(N)ncnc32)C1 (centres unmarked) [Compound 8b]"
  measurement target: "TYK2(JH2domain-pseudokinase) (Homo sapiens, UniProt P29597)"
  remaining binding at 1 µM (%): 96
- compound: "CNC(=O)c1cnc(S(C)(=O)=O)nc1N1CCCC(n2nc(-c3ccc(Oc4ccccc4)cc3)c3c(N)ncnc32)C1 (centres unmarked) [Compound 8d]"
  measurement target: "TYK2(JH2domain-pseudokinase) (Homo sapiens, UniProt P29597)"
  remaining binding at 1 µM (%): 96

Here is another compound to look at.
(Q) Respond only with remaining binding at 1 µM recorded for C=CC(=O)N1CCC[C@@H](n2nc(-c3ccc(Oc4ccccc4)cc3)c3c(N)ncnc32)C1 [Compound 1g, Ibrutinib, reference compound]
(A) 88
